test: in vivo; conditions: male, beagle, dog, plasma, iv, 0.3 mg/kg
Parameter Measured: clearance (mL/min/kg)
Reply numerically in mL/min/kg, unit not repeated.

Could you share which clearance value was measured for Cc1nc(C)c(C(=O)Nc2ccc(F)c(-c3nc4ncc(-c5ncccc5C)cn4n3)c2)o1 [compound 1] ?
11.6

---

assay: metabolite profile in human hepatocytes; type: in vitro ADME; conditions: 10 μM of 1 for 4 h, UV 250 nm, normalized to largest peak

{"columns": ["Molecule", "abundance human"],
 "data": [
  ["Cc1nc(C)c(C(=O)Nc2ccc(F)c(-c3nc4ncc(-c5ncccc5CO)cn4n3)c2)o1 [compound 6]", "+ (+ ≤25%)"],
  ["Cc1nc(CO)c(C(=O)Nc2ccc(F)c(-c3nc4ncc(-c5ncccc5C)cn4n3)c2)o1 [compound 7]", "+ (+ ≤25%)"],
  ["Cc1cccnc1-c1cnc2nc(-c3cc(NC(=O)c4oc(CO)nc4C)ccc3F)nn2c1 [compound 8]", "+ (+ ≤25%)"]
]}

---

assay: pharmacokinetics, summary across preclinical species; type: in vivo, rat, dog, cynomolgus monkey; settings: male, Balb/c (mouse), Wistar (rat), beagle (dog), rat, dog, cynomolgus monkey, in vivo, across species following IV administration, read-out: plasma terminal half-life
Parameter Measured: half-life

Could you share which half-life value was measured for `Cc1nc(C)c(C(=O)Nc2ccc(F)c(-c3nc4ncc(-c5ncccc5C)cn4n3)c2)o1` ?
3 to 10 h

---

assay: in vivo; conditions: male, beagle, dog, plasma, iv, 0.3 mg/kg
Parameter Measured: half-life (h)
Reply numerically in h, unit not repeated.

Could you share which half-life value was measured for Cc1nc(C)c(C(=O)Nc2ccc(F)c(-c3nc4ncc(-c5ncccc5C)cn4n3)c2)o1 [compound 1] ?
3.8

---

assay: in vivo; conditions: male, Balb/c, mouse, plasma, iv, 5 mg/kg
Parameter Measured: Vd (L/kg)
Reply numerically in L/kg, unit not repeated.

Could you share which Vd value was measured for Cc1nc(C)c(C(=O)Nc2ccc(F)c(-c3nc4ncc(-c5ncccc5C)cn4n3)c2)o1 [compound 1] ?
0.63

---

molecular target: PXR (Homo sapiens, UniProt O75469); assay: receptor profile (Table S4); settings: human
Sequence (O75469 whole entry): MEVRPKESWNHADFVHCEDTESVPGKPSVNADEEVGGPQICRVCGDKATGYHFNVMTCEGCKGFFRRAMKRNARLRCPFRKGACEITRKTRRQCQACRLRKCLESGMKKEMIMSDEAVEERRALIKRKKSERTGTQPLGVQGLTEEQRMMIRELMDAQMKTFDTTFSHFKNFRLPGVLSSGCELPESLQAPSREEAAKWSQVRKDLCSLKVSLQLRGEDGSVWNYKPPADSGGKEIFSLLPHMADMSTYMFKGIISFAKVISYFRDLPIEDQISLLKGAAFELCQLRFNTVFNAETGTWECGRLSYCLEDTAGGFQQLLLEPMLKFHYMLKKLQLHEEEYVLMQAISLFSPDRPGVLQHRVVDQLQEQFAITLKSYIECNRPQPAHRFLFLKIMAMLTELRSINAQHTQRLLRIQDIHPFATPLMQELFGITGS
Parameter Measured: inhibition at 10 µM (%)
Reply numerically in %, unit not repeated.

Query for PXR (Homo sapiens, UniProt O75469): what inhibition at 10 µM does the record show for `Cc1nc(C)c(C(=O)Nc2ccc(F)c(-c3nc4ncc(-c5ncccc5C)cn4n3)c2)o1` ?
26

---

assay: mouse plasma protein binding; type: in vitro ADME
Parameter Measured: fraction unbound
Number only, please.

Could you share which fraction unbound value was measured for `Cc1nc(C)c(C(=O)Nc2ccc(F)c(-c3nc4ncc(-c5ncccc5C)cn4n3)c2)o1` ?
0.056

---

target: BSEP (Homo sapiens); assay: receptor profile (Table S4), second BSEP line; settings: human
Sequence (O95342 whole entry): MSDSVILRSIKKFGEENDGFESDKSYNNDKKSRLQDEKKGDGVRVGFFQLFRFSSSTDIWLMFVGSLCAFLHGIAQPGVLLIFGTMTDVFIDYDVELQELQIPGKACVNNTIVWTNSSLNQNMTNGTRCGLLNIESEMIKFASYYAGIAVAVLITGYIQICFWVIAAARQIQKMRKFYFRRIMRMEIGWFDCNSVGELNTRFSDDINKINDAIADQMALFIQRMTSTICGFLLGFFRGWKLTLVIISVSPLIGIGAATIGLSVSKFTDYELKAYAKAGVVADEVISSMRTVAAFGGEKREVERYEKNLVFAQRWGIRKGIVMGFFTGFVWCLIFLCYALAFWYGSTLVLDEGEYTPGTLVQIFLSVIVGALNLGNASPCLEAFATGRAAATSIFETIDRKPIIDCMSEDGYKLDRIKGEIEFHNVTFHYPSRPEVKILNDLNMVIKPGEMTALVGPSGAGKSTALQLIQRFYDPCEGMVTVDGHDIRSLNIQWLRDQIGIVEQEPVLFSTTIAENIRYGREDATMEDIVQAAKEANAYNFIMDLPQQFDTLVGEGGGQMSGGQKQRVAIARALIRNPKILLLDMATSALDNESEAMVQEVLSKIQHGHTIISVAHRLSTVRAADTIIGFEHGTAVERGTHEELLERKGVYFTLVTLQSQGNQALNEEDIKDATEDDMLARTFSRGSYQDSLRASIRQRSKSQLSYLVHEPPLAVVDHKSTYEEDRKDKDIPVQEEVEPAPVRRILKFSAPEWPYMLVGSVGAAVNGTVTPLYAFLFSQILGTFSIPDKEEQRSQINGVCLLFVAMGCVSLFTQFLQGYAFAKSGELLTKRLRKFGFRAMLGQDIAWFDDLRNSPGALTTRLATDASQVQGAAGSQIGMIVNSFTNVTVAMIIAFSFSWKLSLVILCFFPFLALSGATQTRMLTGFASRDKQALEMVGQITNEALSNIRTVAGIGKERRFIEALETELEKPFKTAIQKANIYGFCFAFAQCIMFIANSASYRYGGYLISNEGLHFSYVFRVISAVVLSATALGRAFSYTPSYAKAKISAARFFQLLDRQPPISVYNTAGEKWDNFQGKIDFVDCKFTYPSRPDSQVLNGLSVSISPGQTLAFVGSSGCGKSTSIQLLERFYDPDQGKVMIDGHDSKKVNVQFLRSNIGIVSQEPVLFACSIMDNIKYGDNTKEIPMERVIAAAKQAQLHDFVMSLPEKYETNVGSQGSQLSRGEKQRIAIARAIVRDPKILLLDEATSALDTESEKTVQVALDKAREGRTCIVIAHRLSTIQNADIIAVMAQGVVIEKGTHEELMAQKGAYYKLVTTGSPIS
Parameter Measured: inhibition at 30 µM (%)
Reply numerically in %, unit not repeated.

Could you share which inhibition at 30 µM value was measured for `Cc1nc(C)c(C(=O)Nc2ccc(F)c(-c3nc4ncc(-c5ncccc5C)cn4n3)c2)o1` ?
56

---

experiment: in vivo; details: male, Balb/c, mouse, plasma, iv, 5 mg/kg
Parameter Measured: clearance (mL/min/kg)
Reply numerically in mL/min/kg, unit not repeated.

Could you share which clearance value was measured for `Cc1nc(C)c(C(=O)Nc2ccc(F)c(-c3nc4ncc(-c5ncccc5C)cn4n3)c2)o1` ?
2.3

---

molecular target: Nav1.5 (Homo sapiens, UniProt Q14524); assay: receptor profile (Table S4); settings: human
Sequence (Q14524 whole entry): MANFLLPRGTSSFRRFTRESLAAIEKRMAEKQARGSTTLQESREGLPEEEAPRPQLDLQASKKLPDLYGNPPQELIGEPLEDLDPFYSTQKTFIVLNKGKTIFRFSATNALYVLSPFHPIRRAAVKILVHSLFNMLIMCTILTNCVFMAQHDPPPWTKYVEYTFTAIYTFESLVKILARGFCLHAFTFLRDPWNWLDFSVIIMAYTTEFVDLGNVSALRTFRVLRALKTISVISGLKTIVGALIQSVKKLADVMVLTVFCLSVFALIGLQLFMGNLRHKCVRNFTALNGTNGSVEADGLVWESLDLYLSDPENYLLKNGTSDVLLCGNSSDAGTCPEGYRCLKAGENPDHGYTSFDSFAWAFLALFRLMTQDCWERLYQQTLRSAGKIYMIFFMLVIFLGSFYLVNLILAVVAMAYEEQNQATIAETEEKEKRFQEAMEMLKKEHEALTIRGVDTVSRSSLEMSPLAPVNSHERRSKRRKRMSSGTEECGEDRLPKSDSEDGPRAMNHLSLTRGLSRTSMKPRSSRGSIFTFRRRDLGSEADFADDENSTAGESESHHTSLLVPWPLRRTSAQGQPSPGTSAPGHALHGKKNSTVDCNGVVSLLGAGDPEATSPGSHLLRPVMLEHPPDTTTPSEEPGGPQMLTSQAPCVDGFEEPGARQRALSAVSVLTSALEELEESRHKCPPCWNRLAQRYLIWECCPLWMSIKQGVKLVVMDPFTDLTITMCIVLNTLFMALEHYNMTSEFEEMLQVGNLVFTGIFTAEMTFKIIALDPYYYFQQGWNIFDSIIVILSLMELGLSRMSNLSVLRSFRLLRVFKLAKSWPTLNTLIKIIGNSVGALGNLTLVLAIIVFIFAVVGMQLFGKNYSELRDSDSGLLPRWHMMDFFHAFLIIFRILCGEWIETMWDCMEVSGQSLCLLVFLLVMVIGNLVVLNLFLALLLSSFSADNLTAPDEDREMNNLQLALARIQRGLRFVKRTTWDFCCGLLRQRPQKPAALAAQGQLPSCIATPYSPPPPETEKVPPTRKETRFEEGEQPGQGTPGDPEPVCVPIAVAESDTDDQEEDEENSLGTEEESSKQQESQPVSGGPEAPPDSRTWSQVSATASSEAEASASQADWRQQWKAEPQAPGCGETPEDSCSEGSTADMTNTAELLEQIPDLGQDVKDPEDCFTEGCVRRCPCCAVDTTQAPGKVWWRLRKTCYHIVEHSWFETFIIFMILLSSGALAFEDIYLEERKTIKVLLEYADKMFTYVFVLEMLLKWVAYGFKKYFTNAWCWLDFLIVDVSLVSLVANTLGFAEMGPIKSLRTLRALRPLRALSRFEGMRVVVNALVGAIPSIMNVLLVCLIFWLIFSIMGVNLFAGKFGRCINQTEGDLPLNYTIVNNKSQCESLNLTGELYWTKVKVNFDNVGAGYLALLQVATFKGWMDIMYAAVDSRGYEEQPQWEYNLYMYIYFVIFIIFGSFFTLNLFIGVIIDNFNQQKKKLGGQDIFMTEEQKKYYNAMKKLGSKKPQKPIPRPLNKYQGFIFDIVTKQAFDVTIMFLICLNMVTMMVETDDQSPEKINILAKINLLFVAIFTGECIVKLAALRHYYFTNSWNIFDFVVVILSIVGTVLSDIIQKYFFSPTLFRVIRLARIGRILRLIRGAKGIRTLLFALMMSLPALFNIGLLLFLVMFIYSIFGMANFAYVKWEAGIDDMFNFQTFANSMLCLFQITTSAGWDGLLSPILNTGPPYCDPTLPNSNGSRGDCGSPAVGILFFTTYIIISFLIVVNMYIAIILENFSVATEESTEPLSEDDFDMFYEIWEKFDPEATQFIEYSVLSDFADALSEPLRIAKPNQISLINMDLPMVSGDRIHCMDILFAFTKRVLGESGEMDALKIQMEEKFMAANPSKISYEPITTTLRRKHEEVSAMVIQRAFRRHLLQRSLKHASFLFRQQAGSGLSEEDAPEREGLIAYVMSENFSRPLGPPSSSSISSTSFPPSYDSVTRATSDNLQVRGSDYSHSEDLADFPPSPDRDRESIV
Parameter Measured: inhibition at 10 µM (%)
Reply numerically in %, unit not repeated.

Query for Nav1.5 (Homo sapiens, UniProt Q14524): what inhibition at 10 µM does the record show for Cc1nc(C)c(C(=O)Nc2ccc(F)c(-c3nc4ncc(-c5ncccc5C)cn4n3)c2)o1 [compound 1] ?
8

---

biological target: wild-type (PSMB4^WT) L. tarentolae proteasome (Leishmania tarentolae, UniProt A0A640KTY7+A0A640KW57); test: chymotrypsin-like activity of purified wild-type L. tarentolae proteasome; details: n = 3 technical replicates
Assignment: determine reported IC50 for the given compounds.
Reply numerically in nM, unit not repeated.

Could you share which IC50 value was measured for CC(C)C[C@H](NC(=O)[C@H](Cc1ccccc1)NC(=O)c1cnccn1)B(O)O [Bortezomib, bortezomib, reference compound] ?
4

Note, next up: `Cc1nc(C)c(C(=O)Nc2ccc(F)c(-c3nc4ncc(-c5ncccc5C)cn4n3)c2)o1`
50

---

assay: in vivo; details: male, Balb/c, mouse, plasma, iv, 5 mg/kg
Parameter Measured: MRT (h)
Reply numerically in h, unit not repeated.

Could you share which MRT value was measured for `Cc1nc(C)c(C(=O)Nc2ccc(F)c(-c3nc4ncc(-c5ncccc5C)cn4n3)c2)o1` ?
4.6

---

biological target: purified L. donovani proteasome (Leishmania donovani, UniProt A0A3Q8IIY4+A0A3S7XA80); test: chymotrypsin-like activity of purified L. donovani proteasome; settings: half-maximum inhibition of chymotrypsin-like activity of purified L. donovani proteasome; mean, n = 4 technical replicates
Sequence (A0A3Q8IIY4 100-302): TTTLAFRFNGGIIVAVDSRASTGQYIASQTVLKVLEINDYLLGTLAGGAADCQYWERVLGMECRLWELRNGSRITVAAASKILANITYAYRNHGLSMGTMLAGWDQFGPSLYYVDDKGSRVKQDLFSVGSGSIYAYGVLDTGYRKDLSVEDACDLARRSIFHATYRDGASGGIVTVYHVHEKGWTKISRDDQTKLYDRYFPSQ
Sequence (A0A3S7XA80 1-206): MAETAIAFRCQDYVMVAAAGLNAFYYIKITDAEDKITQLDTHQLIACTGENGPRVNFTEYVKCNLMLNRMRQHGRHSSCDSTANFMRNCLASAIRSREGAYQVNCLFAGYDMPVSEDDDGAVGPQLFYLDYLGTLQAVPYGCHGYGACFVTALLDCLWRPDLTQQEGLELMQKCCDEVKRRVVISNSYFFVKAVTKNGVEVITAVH
Parameter Measured: pIC50
Worth noting: pIC50 values are minus log10 of concentrations stated in mol/L.

Could you share which pIC50 value was measured for `Cc1nc(C)c(C(=O)Nc2ccc(F)c(-c3nc4ncc(-c5ncccc5C)cn4n3)c2)o1` ?
7.40

Note, next up: `Cc1nc(C)c(C(=O)Nc2ccc(F)c(-c3nc4ncc(-c5ncccc5C(F)F)cn4n3)c2)o1`
7.22

Note, next up: `Cc1nc(C)c(C(=O)Nc2ccc(F)c(-c3nc4ncc(-c5ncccc5CO)cn4n3)c2)o1`
7.15

Note, next up: `Cc1nc(C)c(C(=O)Nc2ccc(F)c(-c3nc4ncc(-c5ncccc5Cl)cn4n3)c2)o1`
7.00

---

assay: pharmacokinetics in cynomolgus monkey; assay type: in vivo; details: in vivo; male cynomolgus monkey, 0.3 mg/kg IV
Parameter Measured: MRT (h)
Reply numerically in h, unit not repeated.

Could you share which MRT value was measured for `Cc1nc(C)c(C(=O)Nc2ccc(F)c(-c3nc4ncc(-c5ncccc5C)cn4n3)c2)o1` ?
9.7

---

assay: metabolite profile in dog hepatocytes; assay type: in vitro ADME; conditions: 10 μM of 1 for 4 h, UV 250 nm, normalized to largest peak

{"columns": ["Molecule", "abundance dog"],
 "data": [
  ["Cc1nc(CO)c(C(=O)Nc2ccc(F)c(-c3nc4ncc(-c5ncccc5C)cn4n3)c2)o1 [compound 7]", "+ (+ ≤25%)"],
  ["Cc1nc(C)c(C(=O)Nc2ccc(F)c(-c3nc4ncc(-c5ncccc5CO)cn4n3)c2)o1 [compound 6]", "+ (+ ≤25%)"]
]}

---

assay: in vivo; settings: male, beagle, dog, plasma, iv, 0.3 mg/kg
Parameter Measured: MRT (h)
Reply numerically in h, unit not repeated.

Could you share which MRT value was measured for `Cc1nc(C)c(C(=O)Nc2ccc(F)c(-c3nc4ncc(-c5ncccc5C)cn4n3)c2)o1` ?
3.3

---

Assay: pharmacokinetics in cynomolgus monkey
Format: in vivo
Settings: in vivo; male cynomolgus monkey, 0.3 mg/kg IV; fumarate salt
Experimental: In Vivo Intravenous PK Study in Non-human Primates. The IV PK study in non-human primates was carried out at Covance research facility in Greenfield, Indiana. The research facility is accredited by AAALAC (Association for Assessment and Accreditation of Laboratory Animal Care). The male Cynomolgus monkeys were approximately 4.5 years of age and weighed 4.2 to 5.0 kg. 1 was administered […] 75% polyethylene glycol (PEG300) as described in the earlier section. […]
Parameter Measured: clearance

Could you share which clearance value was measured for `Cc1nc(C)c(C(=O)Nc2ccc(F)c(-c3nc4ncc(-c5ncccc5C)cn4n3)c2)o1` ?
0.9 mL/min/kg

---

experiment: metabolite profile in rat hepatocytes; assay type: in vitro ADME; conditions: 10 μM of 1 for 4 h, UV 250 nm, normalized to largest peak

{"columns": ["Structure Smiles", "abundance rat"],
 "data": [
  ["Cc1nc(CO)c(C(=O)Nc2ccc(F)c(-c3nc4ncc(-c5ncccc5C)cn4n3)c2)o1", "+ (+ ≤25%)"],
  ["Cc1cccnc1-c1cnc2nc(-c3cc(NC(=O)c4oc(CO)nc4C)ccc3F)nn2c1", "+ (+ ≤25%)"],
  ["Cc1nc(C)c(C(=O)Nc2ccc(F)c(-c3nc4ncc(-c5ncccc5CO)cn4n3)c2)o1", "+ (+ ≤25%)"]
]}

---

Assignment: determine reported ER dog for the given compounds.
conditions: microsomal extraction ratio, 1 h incubation in microsomes

Could you share which ER dog value was measured for Cc1nc(C)c(C(=O)Nc2ccc(F)c(-c3nc4ncc(-c5ccccn5)cn4n3)c2)o1 [compound 2] ?
0.46

Note, next up: COc1cccnc1-c1cnc2nc(-c3cc(NC(=O)c4oc(C)nc4C)ccc3F)nn2c1 [compound 5]
0.56

Note, next up: Cc1nc(C)c(C(=O)Nc2ccc(F)c(-c3nc4ncc(-c5ncccc5C(F)F)cn4n3)c2)o1 [compound 3]
0.57

Note, next up: Cc1nc(C)c(C(=O)Nc2ccc(F)c(-c3nc4ncc(-c5ncccc5C)cn4n3)c2)o1 [compound 1]
< 0.24
